Test system: VPS34
Construct: gene PIK3C3
Settings: concentration: 1 μM, replicates: in singlicate; n = 1;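 note: KINOMEscan kinase panel screen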
reported metric: %Inh (%)
Quick reminder: number only, in %, skip the unit.

Solved entries:
>>> val("CCn1c(-c2nonc2N)nc2ccccc21")
2
>>> val("Cc1c(Cn2c(C)nn3c(=O)cc(N4CCO[C@H](C)C4)nc23)cccc1C(F)(F)F")
59
>>> val("C[C@@H]1CC[C@H](C(=O)NC2CCCCC2)CN1c1cc(-c2ccc3c(N)n[nH]c3c2)nc(N)n1")
31

Test system VPS34; read-out %Inh; what value for "COc1cc2ncn(-c3cc(OCCCc4ccccc4)c(C(N)=O)s3)c2cc1OC" ?
0

* * *

System: ICK
Conditions: concentration: 1 μM, replicates: in singlicate; n = 1
reported metric: %Inh (%)
Numeric only. Scale: %

Entry "COc1ccc(-c2cc3c(C)nc(N)nc3n([C@H]3CC[C@H](OCCO)CC3)c2=O)cn1" has what %Inh?
0

Which %Inh value is on record for "O=C(Nc1n[nH]c2nc(-c3ccccc3)c(Br)cc12)C1CC1" ?
0

Which %Inh value belongs to "COc1cc2nccc(Nc3ccc(OCc4ccc(NC(C)=O)cc4)cc3)c2cc1OC.Cl" ?
0

What value of %Inh has been reported for the following molecule? "COc1cc2ncn(-c3cc(OCc4ccncc4Br)c(C(N)=O)s3)c2cc1OC"
5

Any idea what %Inh was measured for "Cc1nnc(-c2ccc(C)c(-c3ccc(C(=O)O)cc3)c2)o1" ?
0

# get_value(readout='%Inh', item= "COC(=O)c1c(-c2ccccc2)c2cc(Br)ccc2c(=O)n1Cc1ccc(S(C)(=O)=O)cc1" )
50

So what does the record say about %Inh for "O=C(NCCNc1ccnc(Nc2ccc(F)cc2)n1)Nc1ccc2c(c1)OCO2" ?
0

// returns reported %Inh for input "O=C(Nc1n[nH]c2cc(-c3ccccc3F)ccc12)C1CC1"
32

GET /values?readout=%Inh&item= COc1cc(Nc2nccc(N3CCC(NC(=O)C(C)c4ccc(Cl)cc4)C3)n2)cc(OC)c1OC (centres unmarked)
0

Query (molecule): "Nc1ncnc2c1ncn2-c1cccc(F)c1" ; field requested: %Inh
6

Fill in the blank: the reported %Inh of COc1ccc(Nc2nccc(N3CCC(NS(=O)(=O)c4ccc(NC(C)=O)cc4)C3)n2)cc1 (centres unmarked) is ____.
13

Sample "COC(=O)c1c(-c2ccccc2)c2cc(C)ccc2c(=O)n1Cc1ccccc1" — what was its %Inh?
0

Field request: %Inh | item: COc1cc(Nc2nccc(N3CCC(NC(=O)C4COc5ccccc5O4)C3)n2)cc(OC)c1OC (centres unmarked)
0

* * *

%Inh for assorted compounds
Tested on: EPHB4
Conditions: concentration: 1 μM, replicates: in singlicate; n = 1
Write the value in % as a bare number.

Observe how each entry below is paired with its result.
>>> val("Cc1nn2c(=O)cc(N3CCOCC3)nc2n1Cc1cccc(Cl)c1Cl [GSK2342769]")
16
>>> val("CCC(=O)c1c(-c2ccccc2)c2cc(Cl)ccc2c(=O)n1Cc1ccc(C(=O)O)cc1")
0
>>> val("CC(C)(C)c1ccc(C(=O)Nc2cn3cc(-c4ccccc4)ccc3n2)cc1")
0
>>> val("Cc1cc(Nc2nc(-c3cccc(C)n3)nc3ccccc23)ccn1 [GW872411]")
0
>>> val("O=C1NC(=O)C(c2ccccc2)=C1Nc1cccc(O)c1 [SB-390534]")
0
>>> val("Nc1n[nH]c2ncc(-c3ccccc3)cc12 [SB-517081]")
9
>>> val("O=c1cc(N2CCOCC2)nc2n(Cc3ccc(F)c(Cl)c3)ccn12 [GSK2297099]")
15
>>> val("CCS(=O)(=O)c1ccc(OC)c(Nc2ncc(-c3ccc(F)cc3)o2)c1.Cl [GW591947]")
0

Would you mind telling me what %Inh value was observed for Cc1nnc(-c2ccc3ncn(-c4ccc(S(C)=O)cc4)c3c2)o1 (stereo not shown) ?
6

So what does the record say about %Inh for "Cc1ccc(-c2ccc3c(ccc4sc5c(c43)NC[C@@H](C)N=C5N(C)C)n2)cn1" ?
0

* * *

// reported %Inh per item
Tested on: ULK2
Details: concentration: 1 μM, replicates: in singlicate; n = 1
Numeric answer only, unit % assumed.

>>> val("COc1cc2ncn(-c3cc(OCc4ccc(S(C)(=O)=O)cc4)c(C(N)=O)s3)c2cc1OC")
6
>>> val("COC(=O)c1c(-c2ccccc2)c2cc(C)ccc2c(=O)n1Cc1ccccc1")
0
>>> val("Cc1ccccc1COc1cc(-n2cnc3cc(Cl)ccc32)sc1C(N)=O")
0

Could you share which %Inh value was measured for "O=C(Nc1n[nH]c2cc(-c3ccccc3F)ccc12)C1CC1" ?
8

I would be grateful if you could share the reported %Inh for "Cc1ccc(-c2ccc3c(ccc4sc5c(c43)NC[C@@H](C)N=C5N(C)C)n2)cn1" .
0

* * *

Test system: ACVR1
Conditions: concentration: 1 μM, replicates: in singlicate; n = 1
Reported %Inh values follow for various molecules

>>> val("COC(=O)c1c(-c2ccccc2)c2cc(Br)ccc2c(=O)n1Cc1ccc(NC(=O)CCC(=O)O)cc1")
"0%"

Query (molecule): "COC(=O)c1c(-c2ccccc2)c2cc(C)ccc2c(=O)n1Cc1ccccc1" ; field requested: %Inh
0%

Returns the measured %Inh for the input molecule. Input: OCCCNc1nccc(-c2c(-c3cccc(C(F)(F)F)c3)nn3cc(C(F)(F)F)ccc23)n1 [GW630813]
0%

If you can, please state the reported %Inh value of COc1cc2ncn(-c3cc(OCCCc4ccccc4)c(C(N)=O)s3)c2cc1OC [GSK205189] .
0%

Any idea what %Inh was measured for "COc1ccc(-c2cc3c(C)nc(N)nc3n([C@H]3CC[C@H](OCCO)CC3)c2=O)cn1" ?
4%

Value lookup for %Inh; key = O=c1cc(N2CCOCC2)nc2n(Cc3ccc(F)c(Cl)c3)ccn12 [GSK2297099]
0%

Query (molecule): Cc1ccccc1COc1cc(-n2cnc3cc(Cl)ccc32)sc1C(N)=O [GW813349] ; field requested: %Inh
0%

Quick check: %Inh of Nc1nccc2scc(-c3ccc4c(c3)CCN4C(=O)Cc3ccccc3)c12 [GSK2576924] ?
10%

Entry under review: "CCCNC(=O)Nc1ccc(Oc2ncnc3ccn(C)c23)cc1" . Reported %Inh?
0%

Look up %Inh: COc1cccc(-n2cnc3c(N)ncnc32)c1 [SKF-97416]
0%

Bench note: what %Inh did COc1ccc(CNC(=O)NC2CCN(c3ccnc(Nc4ccc(F)cc4)n3)C2)cc1 (stereo not shown) [GSK1379706] show?
49%

Requested read-out: %Inh. Entry: FC(F)(F)c1ccc(-c2ncn(CCCN3CCOCC3)c2-c2ccncc2)cc1 [SB-217780]
0%

Look up %Inh: Cc1nn2c(=O)cc(N3CCOCC3)nc2n1Cc1cccc(Cl)c1Cl [GSK2342769]
12%

Recorded %Inh of CN(C)c1cc(-c2ccc3c(N)n[nH]c3c2)nc(N)n1 [GSK2219329] , please.
0%

Give the measured %Inh of COc1cc(Nc2nccc(N3CCC(NC(=O)C4COc5ccccc5O4)C3)n2)cc(OC)c1OC (stereo not shown) [GSK1379761] .
20%

Any idea what its %Inh is? The molecule is Cc1nnc(-c2ccc(C)c(-c3ccc(C(=O)O)cc3)c2)o1 [GW608005]
4%

What measured %Inh goes with COc1cc(Nc2ccnc3ccc(C(F)(F)F)cc23)cc(OC)c1OC [GW577382] ?
67%

Which value of %Inh has been reported for "CCc1ccc(-c2ccc3c(c2)-c2nn(C)cc2S(=O)(=O)N3C)cc1" in the records?
0%

Query (molecule): O=C(NCCNc1ccnc(Nc2ccc(F)cc2)n1)Nc1ccc2c(c1)OCO2 [GSK1379882] ; field requested: %Inh
0%

Form field: reported %Inh of COc1cc2nccc(Nc3cccc(Oc4ccccc4)c3)c2cc1OC.Cl [GW284543]
0%

Name the recorded %Inh for "Cc1ccc(Oc2ccc(Nc3ncnc4cc[nH]c34)cc2C)cn1" .
2%

I'd like to know its %Inh. The molecule in question is Cc1cccc(-c2cc(-c3c[nH]nc3-c3ccccn3)ccn2)c1 [GW679395]
0%

* * *

%Inh reference
Tested on: p38-delta
Details: concentration: 1 μM, replicates: in singlicate; n = 1
Numeric only. Scale: %

>>> val("CCn1c(-c2nonc2N)nc2ccccc21")
0

Param readout = %Inh; param system = p38-delta; param query = "Cc1ccc(-c2ccc3c(ccc4sc5c(c43)NC[C@@H](C)N=C5N(C)C)n2)cn1" ; response: value
10

Please provide the recorded %Inh for "CCC(=O)c1c(-c2ccccc2)c2cc(Cl)ccc2c(=O)n1Cc1cc(S(C)(=O)=O)n(CCC(C)(C)O)n1" , tested on p38-delta.
32

What value of %Inh on p38-delta does "CCC(=O)c1c(-c2ccccc2)c2cc(Cl)ccc2c(=O)n1Cc1cc(C(=O)NC2CC2)n(C)n1" have?
35

Missing value: %Inh, p38-delta, entry "O=C(Nc1ccc2c(c1)OCO2)NC1CCN(c2ccnc(NCc3ccc(F)cc3)n2)CC1" . Fill in?
28

State its %Inh on p38-delta: "COC(=O)c1c(-c2ccccc2)c2cc(Br)ccc2c(=O)n1Cc1ccc(S(C)(=O)=O)cc1"
38

Please tell me: %Inh of "COc1ccc(-c2cc3c(C)nc(N)nc3n([C@H]3CC[C@H](O)CC3)c2=O)cn1" , system p38-delta?
0

Please tell me: %Inh of "Cc1nnc(-c2ccc(C)c(-c3ccc(C(=O)O)cc3)c2)o1" , system p38-delta?
2
